Tested on: murine Abcg2
Format: in vivo, mice
Conditions: female, FVB/N, mouse, milk, intravenous, 10 mg/kg body weight, Milk concentration, Abcg2−/− lactating female mice, 30 min after i.v. melatonin 10 mg/kg
assay_endpoint: concentration at 30 min (ng/mL)
Quick reminder: number only, in ng/mL, skip the unit.

Recorded concentration at 30 min for COc1ccc2[nH]cc(CCNC(C)=O)c2c1 , please? 6340

---

Tested on: human ABCG2
Test: Transepithelial transport assay in MDCK‐II cells transduced with human ABCG2
Format: in vitro ADME
Conditions: with Ko143 1 µM
assay_endpoint: efflux ratio at 4 h
Kindly provide the number alone.

Recorded efflux ratio at 4 h for COc1ccc2[nH]cc(CCNC(C)=O)c2c1 , please? 1.02

---

Tested on: murine Abcg2
Format: in vivo, mice
Settings: female, FVB/N, mouse, plasma, intravenous, 10 mg/kg body weight, Plasma concentration, Abcg2−/− lactating female mice, 30 min after i.v. melatonin 10 mg/kg
assay_endpoint: concentration at 30 min (µg/mL)
Quick reminder: number only, in µg/mL, skip the unit.

Recorded concentration at 30 min for COc1ccc2[nH]cc(CCNC(C)=O)c2c1 [melatonin] , please? 288

---

System: murine Abcg2
Format: in vivo, mice
Details: female, FVB/N, mouse, milk, intravenous, 10 mg/kg body weight, Milk to plasma ratio, Abcg2−/− lactating female mice, 30 min after i.v. melatonin 10 mg/kg
assay_endpoint: Kp at 30 min
Kindly provide the number alone.

Requested read-out Kp at 30 min, target or system murine Abcg2, entry COc1ccc2[nH]cc(CCNC(C)=O)c2c1 0.02

---

Assay: Transepithelial transport assay in parental MDCK‐II cells
Assay type: in vitro ADME, canine
Conditions: dog, with Ko143 1 µM
assay_endpoint: efflux ratio at 4 h
Kindly provide the number alone.

Recorded efflux ratio at 4 h for COc1ccc2[nH]cc(CCNC(C)=O)c2c1 , please? 1.05
